Below, each entry is listed with its recorded Whiteness.
# assay.details: Whiteness of powder (color analyzer)
# Assay type: physicochemical
# measurement.setup: excipient powder
Answer with a number only, understood to be in %.

molecule | measurement.units | Whiteness
OC[C@H]1O[C@H](O[C@H]2O[C@H](CO)[C@@H](O)[C@H](O)[C@H]2O)[C@H](O)[C@@H](O)[C@@H]1O [Trehalose K, trehalose] | % | 97

Q: What value of Whiteness has been reported for the following molecule? OC[C@H]1O[C@H](O[C@H]2O[C@H](CO)[C@@H](O)[C@H](O)[C@H]2O)[C@H](O)[C@@H](O)[C@@H]1O [Trehalose J, trehalose]
Ans: 96

Q: What value of Whiteness has been reported for the following molecule? OC[C@H]1O[C@H](O[C@H]2O[C@H](CO)[C@@H](O)[C@H](O)[C@H]2O)[C@H](O)[C@@H](O)[C@@H]1O [Trehalose I, trehalose]
Ans: 96
